# Test system: PPARg:RXRa IVT, anti-PPARg (NR concentration 270 nM, RXRa partner concentration 90 nM)
# TEST PROTOCOL: PBM binding z-score (relative to random genomic background probes); higher = stronger binding; sequences stand for … in GC…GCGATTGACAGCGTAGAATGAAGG
PROPERTY MEASURED: PBM binding z-score
// print number alone

Recorded results for 5 sequences are shown here.
| SEQUENCE RECORD | PBM binding z-score |
| --- | --- |
| ATCTCTAGGTAAGACTCAGTTCAGTAAAGAACGC | 1.31 |
| ATCGAAAGGTCGACGTGAGTATAGAGAAAGGGAA | 1.19 |
| TCATACAGGTAAACAGGTGAAAGTCCGTAAGTTA | 2.7 |
| CGTCCAAGGTCAATGCTAGGTCATTGAAAGCATT | 3.99 |
| CAAACTAGGACAAGAGGTCAAAGTCCGCTTCCCG | 5.25 |

query: Indicate its recorded PBM binding z-score; the sequence in question is `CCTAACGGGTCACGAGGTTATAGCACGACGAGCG`
result: 4.94

query: Input `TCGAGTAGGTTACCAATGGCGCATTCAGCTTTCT` , output reported PBM binding z-score.
result: 2.51

query: Answer with the recorded PBM binding z-score for the sequence listed here: `ACTATTATTTGACTTAGGGCAACCGATACGACGC`
result: 0.633

* * *

# System: RARg:RXRa (NR concentration 270 nM, RXRa partner concentration 90 nM)
# TEST PROTOCOL: PBM binding z-score (relative to random genomic background probes); higher = stronger binding; sequences stand for … in GC…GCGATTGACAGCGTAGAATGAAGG
# cutoff 1 applies to PBM binding z-score; >= gives Y, < gives N

Field: example entries. Status: answers known.
| SEQUENCE RECORD | GROUP LABEL |
| --- | --- |
| CCGACTGGGGCATAAGGTTACCAGAAGCCAGCCC | Y |
| ACAGACAGGTGATGAAGGTAACGCAGGCTATCAT | N |
| ACAGACAGCTGATGAAGGTAACTCAGGCTATCAT | N |
| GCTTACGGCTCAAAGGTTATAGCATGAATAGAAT | Y |
| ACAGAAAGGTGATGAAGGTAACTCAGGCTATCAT | Y |
| CGTCCAAGGTCAGCAGGTCAGTGCAAGCGACGTG | Y |
| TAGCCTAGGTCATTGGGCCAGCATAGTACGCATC | Y |
| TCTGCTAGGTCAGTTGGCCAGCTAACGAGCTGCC | Y |
| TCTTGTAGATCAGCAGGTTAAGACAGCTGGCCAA | N |
| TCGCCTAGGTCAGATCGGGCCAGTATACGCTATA | Y |

query: Exam item: decide whether the reported PBM binding z-score for `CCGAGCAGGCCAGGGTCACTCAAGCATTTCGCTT` is at least 1.
result: Y

query: Say whether `GGAACGAGGGTAAGTTGATAGCAGAGTTTGATGG` shows PBM binding z-score of 1 or more.
result: N

* * *

# System: LXRb:RXRa (NR concentration 270 nM, RXRa partner concentration 90 nM)
# TEST PROTOCOL: PBM binding z-score (relative to random genomic background probes); higher = stronger binding; sequences stand for … in GC…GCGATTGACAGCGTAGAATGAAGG
PROPERTY MEASURED: PBM binding z-score
Kindly provide the number alone.

Some sequences with known PBM binding z-score results, for comparison:
| SEQUENCE RECORD | TARGET OR TEST SYSTEM | PBM binding z-score |
| --- | --- | --- |
| TCTACCAGGCCAGAGGGTCACTCAAGAGGTACGG | LXRb:RXRa (NR concentration 270 nM, RXRa partner concentration 90 nM) | 1.38 |
| ATATGTAGGTTACTTCCGGGTCATTCAGGCTATG | LXRb:RXRa (NR concentration 270 nM, RXRa partner concentration 90 nM) | 3.81 |
| AGTTAAAGTTCAGGACGAGGTAACGTAAAGCACG | LXRb:RXRa (NR concentration 270 nM, RXRa partner concentration 90 nM) | 1.91 |

query: Consider the sequence `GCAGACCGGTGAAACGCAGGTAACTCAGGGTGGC` and give its recorded PBM binding z-score.
result: -0.971

query: Fill in reported PBM binding z-score for this entry: `CCTCGGAGGACAACAGGACGTCAGAGCTGCCAGA`
result: -0.881

query: Quickly give me recorded PBM binding z-score for `TCTCGTTGGTCACGGAGGTCACACACGACGGGTA`
result: 3.75

query: State its PBM binding z-score: `ACGAGCAGGCCAAGTTTGGGTCACTCAAACAAAG`
result: 0.536

query: For the sequence `TGTCAAAGTTCACAGGTAACGTAAGTATCCACAC` , report PBM binding z-score.
result: 4.04

query: Please supply the value of reported PBM binding z-score for the item `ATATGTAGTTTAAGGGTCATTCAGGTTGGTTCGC`
result: 4.07

query: Kindly indicate its recorded PBM binding z-score. Item: `CGTTCAAGGTCAGCAGGTCAGTGAAAGCGACGTG`
result: 3.38

query: Consider the sequence `GCTTCTAGATCAAGGTTAAGAAAGACTAAGCTAA` and give its recorded PBM binding z-score.
result: 0.697

query: Return PBM binding z-score for the following sequence: `CCGACTGGGGCAAGCTTACCATAACGCACAGCCA`
result: -0.277
